Biological target: UniProtKB Q8BLA8
Test: IonWorks Barracuda (IWB) automated patch clamp detection of TRPA1 inhibitory activity
Format: cell-based
Conditions: HEK293 cells stably expressing TRPA1; current induced by AITC; read-out: IC50 (μM), inhibitory activity on TRPA1 in the automated patch clamp detection test
Method: The inhibitory activity of some compounds in the examples of the present invention (as shown in Table 1) on transient receptor potential channel protein TRPA1 was tested in this example. […] Data recording and current amplitude measurement export were carried out by IWB software (version 2.5.3, Molecular Devices Corporation, Union City, CA). No statistics was recorded for holes with sealing impedance lower than 20 MQΩ. […] TRPA1 current amplitude was measured at +100 mV. […]
Parameter Measured: IC50

Worked cases, answers included:
CNCC[C@@H](Oc1cccc2ccoc12)c1ccsc1 ... 1 to 5 µM
CNCC[C@@H](Oc1cccc2ccccc12)c1cccs1 ... 21 to 50 µM
NCC[C@@H](Oc1cccc2ccoc12)c1cccs1 ... 6 to 10 µM
CN(C)CC[C@@H](Oc1cccc2ccoc12)c1cccs1 ... 1 to 5 µM
CCNCC[C@@H](Oc1cccc2ccoc12)c1cccs1 ... 1 to 5 µM
CNCC[C@@H](Oc1cccc2ccoc12)c1ccccc1 ... 11 to 20 µM

# input Item under review: `CNCC[C@@H](Oc1cccc2c1CCC2)c1cccs1` . Reported IC50?
# output 6 to 10 µM

----------
Target: TRPA1 (Mus musculus (Mouse), UniProt Q8BLA8)
Sequence (Q8BLA8 whole entry): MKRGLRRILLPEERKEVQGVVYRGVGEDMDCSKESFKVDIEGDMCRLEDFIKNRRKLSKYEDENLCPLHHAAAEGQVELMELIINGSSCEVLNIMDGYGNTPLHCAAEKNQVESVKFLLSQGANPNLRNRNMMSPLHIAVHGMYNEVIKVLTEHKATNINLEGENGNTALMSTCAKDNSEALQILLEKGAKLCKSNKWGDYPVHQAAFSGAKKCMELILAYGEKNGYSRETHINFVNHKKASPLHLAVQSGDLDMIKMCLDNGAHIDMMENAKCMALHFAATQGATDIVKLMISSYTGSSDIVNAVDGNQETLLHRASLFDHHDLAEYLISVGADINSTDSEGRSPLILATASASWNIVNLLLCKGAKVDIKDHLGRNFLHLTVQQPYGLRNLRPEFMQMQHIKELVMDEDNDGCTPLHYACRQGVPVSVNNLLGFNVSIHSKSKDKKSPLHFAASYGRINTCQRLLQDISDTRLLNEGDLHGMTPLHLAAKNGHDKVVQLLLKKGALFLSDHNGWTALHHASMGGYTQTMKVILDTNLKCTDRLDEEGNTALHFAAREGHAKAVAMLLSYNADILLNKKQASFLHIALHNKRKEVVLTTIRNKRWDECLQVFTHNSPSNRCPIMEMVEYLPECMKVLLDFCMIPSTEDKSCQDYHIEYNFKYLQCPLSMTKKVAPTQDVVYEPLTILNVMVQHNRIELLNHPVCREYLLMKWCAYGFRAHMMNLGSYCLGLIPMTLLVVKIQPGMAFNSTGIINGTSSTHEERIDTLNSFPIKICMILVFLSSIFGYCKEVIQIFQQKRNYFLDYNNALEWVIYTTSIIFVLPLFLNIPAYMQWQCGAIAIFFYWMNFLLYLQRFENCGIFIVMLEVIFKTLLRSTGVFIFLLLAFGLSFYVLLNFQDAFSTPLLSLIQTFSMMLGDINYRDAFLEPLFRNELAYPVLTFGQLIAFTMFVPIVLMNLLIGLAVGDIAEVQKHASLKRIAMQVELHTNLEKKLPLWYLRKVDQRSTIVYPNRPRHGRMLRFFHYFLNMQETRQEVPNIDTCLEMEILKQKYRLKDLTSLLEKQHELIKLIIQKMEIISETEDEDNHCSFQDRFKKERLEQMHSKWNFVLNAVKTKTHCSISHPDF
Experiment: IonWorks Barracuda (IWB) automated patch clamp detection of TRPA1 inhibitory activity
Type: cell-based
Details: HEK293 cells stably expressing TRPA1; FIG. 1; read-out: IC50 on TRPA1, automated patch clamp
Parameter Measured: pIC50
Recall that pIC50 is obtained by taking minus log10 of the concentration measured in molar.

# input May I ask what pIC50 has been recorded for `CNCC[C@@H](Oc1cccc2ccoc12)c1cccs1` ?
# output 5.69

----------
Readings of IC50 for the listed molecules
Target: TRPA1 (Mus musculus (Mouse), UniProt Q8BLA8)
Test: IonWorks Barracuda (IWB) automated patch clamp detection of TRPA1 inhibitory activity
Format: cell-based
Conditions: HEK293 cells stably expressing TRPA1; current induced by AITC; read-out: IC50 (μM), inhibitory activity on TRPA1 in the automated patch clamp detection test

CNCC[C@@H](Oc1cccc2ccoc12)c1cccs1 ... 1 to 5 µM
CNCC[C@@H](Oc1cccc2ccoc12)c1ccco1 ... 1 to 5 µM
CNCC[C@@H](Oc1cccc2ccoc12)c1ccc(C)s1 ... 6 to 10 µM
CNCC[C@@H](Oc1cccc2occc12)c1cccs1 ... 6 to 10 µM

// switching to the query molecule
# input GET /values?readout=IC50&item= `C[C@H]1CCCN1c1ccc(-c2csc(NC(=O)Cn3cnc4c3c(=O)n(C)c(=O)n4C)n2)cc1F`
# output 51 to 100 µM

----------
Tested on: ICR mice
Experiment: Mice acetic acid writhing pain model (visceral and inflammatory pain)
Format: in vivo
Details: 10 mg/kg by gavage, 1 h before acetic acid; saline group 49 times
Entries and their number of appearance of writhing reactions (visceral pain) within 30 min
Express the result in times but write the number alone.

Below are worked cases with known answers.
CNCC[C@@H](Oc1cccc2ccoc12)c1cccs1 [Compound I-1] ... 16
CN1[C@H]2C[C@H](OC(=O)[C@H](CO)c3ccccc3)C[C@@H]1[C@@H](O)C2 [anisodamine] ... 27
CNCC[C@H](Oc1cccc2ccccc12)c1cccs1 [S-duloxetine] ... 27

Here is another compound to look at.
# input Which number of appearance of writhing reactions (visceral pain) within 30 min value belongs to COc1ccc2c(c1)c(CC(=O)O)c(C)n2C(=O)c1ccc(Cl)cc1 [indomethacin] ?
# output 28
